Collected pIC50 values appear next to each entry.
Target: IMP-1 (Serratia marcescens)
Sequence (P52699 19-246, looked up, species assumed): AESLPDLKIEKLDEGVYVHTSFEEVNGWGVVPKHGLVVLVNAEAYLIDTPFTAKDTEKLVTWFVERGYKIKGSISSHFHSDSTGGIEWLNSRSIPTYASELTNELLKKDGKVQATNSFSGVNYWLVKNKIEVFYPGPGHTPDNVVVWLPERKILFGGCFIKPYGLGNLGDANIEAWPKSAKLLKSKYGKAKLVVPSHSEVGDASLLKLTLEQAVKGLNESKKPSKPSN
Test: Enzyme activity: determination of IC50, fluorescence assay with CCF2-FA substrate
Format: biochemical
Conditions: IMP-1 enzyme 2 pM, CCF2-FA 1.25 μM, 2 hours at 25° C.; read-out: IMP1 IC50
A value of pIC50 is the negative decimal logarithm of a concentration given in moles per litre.

[[record]]
compound = "CC(C)C[C@H](C(=O)O)[C@H](Cc1ccc(N2CC(N3CCN(C)CC3)C2)nc1)c1nnn[nH]1"
measurement_kind = "pIC50"
endpoint_value = 6.27

[[record]]
compound = "CC(C)C[C@H](C(=O)O)[C@H](Cc1ccc(N2CCCC2CO)nc1)c1nnn[nH]1 (stereo partly shown)"
measurement_kind = "pIC50"
endpoint_value = 7.21


Query (compound): CCC[C@H](C(=O)[O-])[C@H](Cc1ccc(C2CC[N+](C)(C)CC2)nc1)c1nnn[nH]1 ; field requested: pIC50
5.19

Another: CCC[C@H](C(=O)O)[C@H](Cc1cccc2nsnc12)c1nnn[nH]1
6.22

Another: CCC[C@H](C(=O)O)[C@H](Cc1cccc(-c2ccnc(N)c2)c1)c1nn[nH]n1
6.85

Another: CCC[C@H](C(=O)O)[C@H](Cc1ccccc1C1=CCC(NC)CC1)c1nn[nH]n1 (stereo partly shown) [Example 448, 2,2,2-trifluoroacetate]
5.11

---

Molecular target: UniProtKB P52699
Experiment: Enzyme activity: determination of IC50, fluorescence assay with CCF2-FA substrate
Type: biochemical
Conditions: enzyme 2 pM, CCF2-FA 1.25 μM, 2 hours at 25° C.; read-out: IMP1 IC50
Collected IC50 values appear next to each entry.
Just the number please, in µM, no unit attached.

[[record]]
compound = "CC(C)C[C@H](C(=O)O)[C@H](Cc1ccc(C2=CCNC2)nc1)c1nn[nH]n1"
system_tested = "UniProtKB P52699"
measurement_kind = "IC50"
endpoint_value = 4.4

[[record]]
compound = "CCC[C@H](C(=O)O)[C@H](Cc1ccc(NC(C)CN(C)C)cc1)c1nn[nH]n1 (some centres unmarked)"
system_tested = "UniProtKB P52699"
measurement_kind = "IC50"
endpoint_value = 1.1

[[record]]
compound = "CCC[C@H](C(=O)O)[C@H](Cc1ccc(-c2ccc(CO)cc2)cc1)c1nn[nH]n1"
system_tested = "UniProtKB P52699"
measurement_kind = "IC50"
endpoint_value = 0.02


Query (compound): CCC[C@H](C(=O)O)[C@H](Cc1ccc(Oc2ccc(CN)cc2)nc1)c1nnn[nH]1 ; field requested: IC50
0.2

Another: CCC[C@H](C(=O)O)[C@H](Cc1ccc(-c2ccc(CN(C)C)cc2)cc1)c1nnn[nH]1
0.075

Another: CC(C)C[C@H](C(=O)O)[C@H](Cc1ccc(N)cn1)c1nnn[nH]1 [Example 113, 2,2,2-trifluoroacetate]
2.1

Another: CCC[C@H](C(=O)O)[C@H](Cc1ccc(-c2ccc3[nH]ncc3c2)cn1)c1nnn[nH]1
3

---

Molecular target: NDM-1 (Klebsiella pneumoniae)
Test: Enzyme activity: determination of IC50, fluorescence assay with CCF2-FA substrate
Format: biochemical
Conditions: NDM-1 enzyme 1 pM, CCF2-FA 1.25 μM, 2 hours at 25° C.; read-out: NDM1 IC50
Rule: measured IC50 below 50 nM gets class 1; anything equal to or greater than 50 nM gets class 0.

Before answering, review these 6 worked examples.
[[record]]
compound = "CC(C)C[C@H](C(=O)O)[C@H](Cc1ccc(Oc2ccc(CC(C)(C)N)cc2)nc1)c1nn[nH]n1"
assigned_category = "class 0"

[[record]]
compound = "CC(C)C[C@H](C(=O)O)[C@H](Cc1ccc(N2CCCC2CO)nc1)c1nnn[nH]1 (some centres unmarked)"
assigned_category = "class 0"

[[record]]
compound = "CCC[C@H](C(=O)O)[C@H](Cc1cnc(N(C)C)nc1)c1nnn[nH]1"
assigned_category = "class 0"

[[record]]
compound = "CCC[C@H](C(=O)O)[C@H](Cc1cccc(-c2ccnc(N3CCNCC3)c2)c1)c1nn[nH]n1"
assigned_category = "class 1"

[[record]]
compound = "CCC[C@H](C(=O)O)[C@H](Cc1ccccc1-c1ccc(N)nc1)c1nn[nH]n1"
assigned_category = "class 1"

[[record]]
compound = "CC(C)C[C@H](C(=O)O)[C@H](Cc1ccc(N2CCCC2)nc1)c1nnn[nH]1"
assigned_category = "class 0"


Take the compound CC(C)(C)[C@H](C(=O)O)[C@@H](Cc1cccc2sc(Br)nc12)c1nnn[nH]1 and say whether its IC50 is less than 50 nM.
class 1

---

Collected IC50 values appear next to each entry.
Molecular target: VIM-1 (Pseudomonas aeruginosa)
Experiment: Enzyme activity: determination of IC50, fluorescence assay with CCF2-FA substrate
Format: biochemical
Settings: enzyme 30 pM, CCF2-FA 1.25 μM, 2 hours at 25° C.; read-out: VIM1 IC50
Just the number please, in nM, no unit attached.

[[record]]
compound = "CCC[C@H](C(=O)O)[C@H](Cc1ccc(-c2ccc3c(c2)CCC(N)C3)cc1)c1nn[nH]n1 (stereo partly shown) [Example 193]"
system_tested = "VIM-1 (Pseudomonas aeruginosa)"
unit = "nM"
endpoint_value = 18

[[record]]
compound = "CCC[C@H](C(=O)O)[C@H](Cc1ccc(-c2cnc(N)nc2)nc1)c1nnn[nH]1 [Example 161]"
system_tested = "VIM-1 (Pseudomonas aeruginosa)"
unit = "nM"
endpoint_value = 3.3

[[record]]
compound = "O=C(O)CCCC[C@H](C(=O)O)[C@H](Cc1ccccc1)c1nnn[nH]1 [Example 34]"
system_tested = "VIM-1 (Pseudomonas aeruginosa)"
unit = "nM"
endpoint_value = 40


Read the next record carefully.
Query (compound): CCC[C@H](C(=O)O)[C@H](Cc1ccc(-c2ccc(C3(O)CNC3)cc2)cn1)c1nnn[nH]1 [Example 166] ; field requested: IC50
170

---

Biological target: NDM-1 (Klebsiella pneumoniae)
Experiment: Enzyme activity: determination of IC50, fluorescence assay with CCF2-FA substrate
Assay type: biochemical
Conditions: enzyme 1 pM, CCF2-FA 1.25 μM, 2 hours at 25° C.; read-out: NDM1 IC50
measurement-kind: IC50 (nM)
Just the number please, in nM, no unit attached.

[[record]]
molecule = "CCC[C@H](C(=O)O)[C@H](Cc1ccc(Cl)nc1)c1nnn[nH]1"
measurement_kind = "IC50"
unit = "nM"
endpoint_value = 240

[[record]]
molecule = "O=C(O)[C@@H](CCCCc1ccccc1)[C@H](Cc1ccc2c(c1)OCO2)c1nnn[nH]1"
measurement_kind = "IC50"
unit = "nM"
endpoint_value = 27

[[record]]
molecule = "CCC[C@H](C(=O)O)[C@H](Cc1ccc(NCCS(N)(=O)=O)cn1)c1nnn[nH]1"
measurement_kind = "IC50"
unit = "nM"
endpoint_value = 170


Query (molecule): CC(C)[C@H](C(=O)O)[C@H](Cc1ccc(N)nc1)c1nnn[nH]1 ; field requested: IC50
120

Another: CCC[C@H](C(=O)O)[C@H](Cc1ccc(-c2ccccc2CN2CCCCC2)cc1)c1nn[nH]n1
500

Another: CCC[C@H](C(=O)O)[C@H](Cc1ccc(-c2ccc(CN)cc2)nc1)c1nnn[nH]1
280

Another: O=C(O)[C@@H](C1CCCC1)[C@H](Cc1ccc(C2CCNC2)cc1)c1nnn[nH]1 (stereo partly shown)
24

Another: CCC[C@H](C(=O)O)[C@H](Cc1ccc(-c2ccc3c(c2)CCC(N)C3)cc1)c1nn[nH]n1 (stereo partly shown)
58

Another: CCC[C@H](C(=O)O)[C@H](Cc1cccc(C(N)=O)c1)c1nn[nH]n1
70

---

Target: NDM-1 (Klebsiella pneumoniae, UniProt C7C422)
Sequence (C7C422 29-270, looked up, species assumed): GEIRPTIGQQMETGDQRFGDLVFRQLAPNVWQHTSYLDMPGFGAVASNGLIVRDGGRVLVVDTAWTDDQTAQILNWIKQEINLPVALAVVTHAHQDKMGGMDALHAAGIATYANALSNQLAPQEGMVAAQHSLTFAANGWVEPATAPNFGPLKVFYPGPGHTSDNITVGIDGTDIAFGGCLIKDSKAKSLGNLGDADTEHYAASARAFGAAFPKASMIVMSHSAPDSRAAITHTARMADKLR
Test: Enzyme activity: determination of IC50, fluorescence assay with CCF2-FA substrate
Assay type: biochemical
Details: enzyme 1 pM, CCF2-FA 1.25 μM, 2 hours at 25° C.; read-out: NDM1 IC50
measurement-kind: IC50 (µM)
Just the number please, in µM, no unit attached.

[[record]]
compound_smiles = "CCC[C@H](C(=O)O)[C@H](Cc1ccc(N2CCN(CCO)CC2)cc1)c1nn[nH]n1"
unit = "µM"
endpoint_value = 0.11

[[record]]
compound_smiles = "CCC[C@H](C(=O)O)[C@@H](Cc1ccc(-c2ccc3c(c2)OCC(=O)N3)cn1)c1nnn[nH]1"
unit = "µM"
endpoint_value = 1

[[record]]
compound_smiles = "CC(C)[C@H](C(=O)O)[C@H](Cc1cnc(N)nc1)c1nnn[nH]1"
unit = "µM"
endpoint_value = 0.15

[[record]]
compound_smiles = "CCCC[C@@H](C(=O)O)[C@@H](Cc1ccc(-c2cn[nH]c2)cc1)c1nn[nH]n1"
unit = "µM"
endpoint_value = 0.75

[[record]]
compound_smiles = "CCC[C@H](C(=O)O)[C@H](Cc1ccc(-c2cnn(C)c2)cc1)c1nnn[nH]1"
unit = "µM"
endpoint_value = 0.018


Query (compound): CCC[C@H](C(=O)O)[C@H](Cc1ccc2ccc(N)nc2c1)c1nnn[nH]1 ; field requested: IC50
0.11

Another: CCC[C@H](C(=O)O)[C@H](Cc1ccc(-c2ccc(N)nc2)cn1)c1nnn[nH]1
0.2

Another: CCC[C@H](C(=O)O)[C@H](Cc1ccc(-c2cccc3c2CNC3=O)cc1)c1nnn[nH]1
0.0065
